system_tested: T1, human GFRα3 on HEK293/hGFRα3/hRET/SRE-luc cells (human, UniProt O60609 32-382)
T1 sequence: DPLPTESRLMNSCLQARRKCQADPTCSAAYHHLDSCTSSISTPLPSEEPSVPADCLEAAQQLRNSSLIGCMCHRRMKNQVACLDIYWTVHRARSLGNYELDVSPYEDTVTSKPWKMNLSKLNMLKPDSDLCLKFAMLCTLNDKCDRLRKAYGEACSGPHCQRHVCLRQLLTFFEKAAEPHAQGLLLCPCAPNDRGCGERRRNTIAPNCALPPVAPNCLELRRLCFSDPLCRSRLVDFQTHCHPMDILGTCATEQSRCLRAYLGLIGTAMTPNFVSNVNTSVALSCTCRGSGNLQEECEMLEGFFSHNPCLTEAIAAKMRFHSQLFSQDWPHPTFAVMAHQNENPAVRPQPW
run_description: cell-based or functional assay
Form field: IC50 (SRE-luc, HEK293/hGFRα3/hRET cells, 100 pM hARTEMIN-mmH) (one value per entry).
Give just the numeric value; nM need not be written.

Consider the worked cases shown below.
H4H2243N2 (antibody, human IgG4, V domains shown, human IgG4 Fc (H4H)) VH: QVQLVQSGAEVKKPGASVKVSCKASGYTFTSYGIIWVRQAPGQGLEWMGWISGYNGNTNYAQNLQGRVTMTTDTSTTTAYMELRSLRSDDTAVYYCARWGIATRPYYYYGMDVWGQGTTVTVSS VL: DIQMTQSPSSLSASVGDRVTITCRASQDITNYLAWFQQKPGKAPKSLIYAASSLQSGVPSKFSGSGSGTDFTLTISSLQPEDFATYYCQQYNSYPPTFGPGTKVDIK; 0.3
H4H2352S (antibody, human IgG4, V domains shown, human IgG4 Fc (H4H); also called H4H2352S-1) VH: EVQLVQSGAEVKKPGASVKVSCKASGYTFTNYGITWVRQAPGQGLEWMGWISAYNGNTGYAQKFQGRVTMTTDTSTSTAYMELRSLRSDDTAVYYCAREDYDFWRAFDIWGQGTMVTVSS VL: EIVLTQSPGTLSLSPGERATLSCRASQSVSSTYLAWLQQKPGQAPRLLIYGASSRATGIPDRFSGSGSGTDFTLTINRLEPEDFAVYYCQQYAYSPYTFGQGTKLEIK; 0.92
H4H2357S (antibody, human IgG4, V domains shown, human IgG4 Fc (H4H)) VH: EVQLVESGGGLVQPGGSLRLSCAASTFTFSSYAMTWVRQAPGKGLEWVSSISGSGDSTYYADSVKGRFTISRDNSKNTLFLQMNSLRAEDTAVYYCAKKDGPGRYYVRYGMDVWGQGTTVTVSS VL: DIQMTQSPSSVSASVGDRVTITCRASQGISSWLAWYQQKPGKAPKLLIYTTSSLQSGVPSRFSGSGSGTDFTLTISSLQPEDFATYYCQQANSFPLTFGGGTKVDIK; 4.9
H4H2292S (antibody, human IgG4, V domains shown, human IgG4 Fc (H4H)) VH: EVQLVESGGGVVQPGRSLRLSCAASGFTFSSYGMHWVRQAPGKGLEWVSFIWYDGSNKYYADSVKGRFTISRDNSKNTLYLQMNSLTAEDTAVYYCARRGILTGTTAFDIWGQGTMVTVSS VL: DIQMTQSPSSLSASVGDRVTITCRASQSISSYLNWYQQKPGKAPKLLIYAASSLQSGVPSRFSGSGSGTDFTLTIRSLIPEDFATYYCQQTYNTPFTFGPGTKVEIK; 4.6

INPUT: Which IC50 (SRE-luc, HEK293/hGFRα3/hRET cells, 100 pM hARTEMIN-mmH) is reported for this binder? H4H2345S (antibody, human IgG4, V domains shown, human IgG4 Fc (H4H)) VH: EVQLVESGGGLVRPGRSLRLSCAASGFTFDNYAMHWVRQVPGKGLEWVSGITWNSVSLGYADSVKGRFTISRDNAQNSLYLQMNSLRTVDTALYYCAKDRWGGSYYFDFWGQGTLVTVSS VL: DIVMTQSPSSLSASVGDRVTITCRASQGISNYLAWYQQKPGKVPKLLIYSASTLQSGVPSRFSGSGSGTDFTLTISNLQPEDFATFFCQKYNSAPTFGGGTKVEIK
OUTPUT: 26
